- measured.target: Signal transducer and activator of transcription 3 (Homo sapiens)
- Sequence (P40763 whole entry): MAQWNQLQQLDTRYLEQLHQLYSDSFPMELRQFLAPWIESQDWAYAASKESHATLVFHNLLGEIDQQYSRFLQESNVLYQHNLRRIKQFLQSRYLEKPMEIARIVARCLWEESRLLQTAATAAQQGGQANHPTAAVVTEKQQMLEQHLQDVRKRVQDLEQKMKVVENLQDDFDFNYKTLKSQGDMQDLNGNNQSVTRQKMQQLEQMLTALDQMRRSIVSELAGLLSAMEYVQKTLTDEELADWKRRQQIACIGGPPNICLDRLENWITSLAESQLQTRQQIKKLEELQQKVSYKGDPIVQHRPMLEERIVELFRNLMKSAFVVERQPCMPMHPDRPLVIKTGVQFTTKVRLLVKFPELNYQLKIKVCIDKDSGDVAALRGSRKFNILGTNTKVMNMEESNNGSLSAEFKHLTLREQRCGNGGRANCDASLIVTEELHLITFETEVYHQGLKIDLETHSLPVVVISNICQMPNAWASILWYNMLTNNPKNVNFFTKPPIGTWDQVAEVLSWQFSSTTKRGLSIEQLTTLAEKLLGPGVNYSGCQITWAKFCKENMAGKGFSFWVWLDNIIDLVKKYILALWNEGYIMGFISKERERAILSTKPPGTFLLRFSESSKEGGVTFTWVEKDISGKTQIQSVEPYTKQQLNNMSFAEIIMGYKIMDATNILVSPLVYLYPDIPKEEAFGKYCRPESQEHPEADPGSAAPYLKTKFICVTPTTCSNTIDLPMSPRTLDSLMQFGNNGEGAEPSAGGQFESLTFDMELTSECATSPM
- protocol.summary: Inhibition of STAT3 (unknown origin)
pIC50: −log10 of the molar value.
metric.name: pIC50

# molecule.smiles, result.number
records = [
    ("COC(=O)[C@@]12OC[C@]34[C@H]([C@@H](O)[C@@H]1O)[C@@]1(C)CC(=O)C(O)=C(C)[C@@H]1C[C@H]3OC(=O)[C@H](OC(=O)C=C(C)C(C)(C)OC(C)=O)[C@@H]24", 8.62),
]
